ΔTm reference
- Tested on: Calf thymus DNA
- TEST SUMMARY: Thermal denaturation of calf thymus DNA at 18 h, incubation at 37 degree C
- Assay type: nucleic-acid assay
- MEASUREMENT PARAMETERS: Bos taurus

- TEST SMILES: "COc1cc2c(cc1OCCCCOc1ccc(-c3nc4cc(N5CCN(C)CC5)ccc4[nH]3)cc1)N=C[C@@H]1CCCN1C2=O"
  ΔTm (°C): 15.5
- TEST SMILES: "COc1cc2c(cc1OCCCOc1ccc(-c3nc4ccccc4[nH]3)cc1)N=C[C@@H]1CCCN1C2=O"
  ΔTm (°C): 11.4
- TEST SMILES: "COc1cc2c(cc1OCCCCCOc1ccc(-c3nc4cc(N5CCN(C)CC5)ccc4[nH]3)cc1)N=C[C@@H]1CCCN1C2=O"
  ΔTm (°C): 22.6
- TEST SMILES: "COc1cc2c(cc1OCCCOc1ccc(-c3nc4ccc(N5CCN(C)CC5)cc4[nH]3)cc1)N=C[C@@H]1CCCN1C2=O"
  ΔTm (°C): 22.5

====

- Test system: Calf thymus DNA
- TEST SUMMARY: Thermal denaturation of calf thymus DNA at 18 h, incubation at 37 degree C
- Type: nucleic-acid assay
- MEASUREMENT PARAMETERS: Bos taurus
READOUT: ΔTm (°C)

- TEST SMILES: "CN1CCN(c2ccc3[nH]c(-c4ccc(O)cc4)nc3c2)CC1"
  QUANTITATIVE RESULT: 2.9
- TEST SMILES: "COc1cc2c(cc1OCCCCCOc1ccc(-c3nc4ccccc4[nH]3)cc1)N=C[C@@H]1CCCN1C2=O"
  QUANTITATIVE RESULT: 11
- TEST SMILES: "COc1cc2c(cc1OCCCCOc1ccc(-c3nc4ccccc4[nH]3)cc1)N=C[C@@H]1CCCN1C2=O"
  QUANTITATIVE RESULT: 4

====

- Test system: Calf thymus DNA
- TEST SUMMARY: Thermal denaturation of calf thymus DNA at 0 h, incubation at 37 degree C
- Format: nucleic-acid assay
- MEASUREMENT PARAMETERS: Bos taurus
We begin with a simple list: items and their reported ΔTm.
READOUT: ΔTm (°C)

- TEST SMILES: "COc1cc2c(cc1OCCCCCOc1ccc(-c3nc4ccccc4[nH]3)cc1)N=C[C@@H]1CCCN1C2=O"
  QUANTITATIVE RESULT: 10.3
- TEST SMILES: "COc1cc2c(cc1OCCCCCOc1ccc(-c3nc4cc(N5CCN(C)CC5)ccc4[nH]3)cc1)N=C[C@@H]1CCCN1C2=O"
  QUANTITATIVE RESULT: 22.4
- TEST SMILES: "COc1cc2c(cc1OCCCOc1ccc(-c3nc4ccccc4[nH]3)cc1)N=C[C@@H]1CCCN1C2=O"
  QUANTITATIVE RESULT: 11
- TEST SMILES: "COc1cc2c(cc1OCCCCOc1ccc(-c3nc4cc(N5CCN(C)CC5)ccc4[nH]3)cc1)N=C[C@@H]1CCCN1C2=O"
  QUANTITATIVE RESULT: 15.5
- TEST SMILES: "COc1cc2c(cc1O)N=C[C@H]1CCCN1C2=O"
  QUANTITATIVE RESULT: 0.3
- TEST SMILES: "COc1cc2c(cc1OCCCOc1ccc(-c3nc4ccc(N5CCN(C)CC5)cc4[nH]3)cc1)N=C[C@@H]1CCCN1C2=O"
  QUANTITATIVE RESULT: 16.6
- TEST SMILES: "COc1cc2c(cc1OCCCCOc1ccc(-c3nc4ccccc4[nH]3)cc1)N=C[C@@H]1CCCN1C2=O"
  QUANTITATIVE RESULT: 3.8
- TEST SMILES: "CN1CCN(c2ccc3[nH]c(-c4ccc(O)cc4)nc3c2)CC1"
  QUANTITATIVE RESULT: 2.9
